protocolText: Phase 1b study in RYR1-Related Myopathy patients, plasma pharmacokinetics
Assay type: in vivo, human (RYR1-Related Myopathy patients)
protocolConditions: human, plasma, po, 120 mg, 120 mg oral daily for 28 days, Day 28, n 3, Median; read-out: AUC0-tau
testReadout: AUC (µg·h/mL)
API: value field is a number in µg·h/mL; no unit string.

Problem: Indicate its recorded AUC; the compound in question is COc1ccc2c(c1)CN(Cc1ccc(C(=O)O)cc1)CCS2.O=C(O)/C=C/C(=O)O
Solution: 285

* * *

protocolText: Phase 1b study in RYR1-Related Myopathy patients, plasma pharmacokinetics
Type: in vivo, human (RYR1-Related Myopathy patients)
protocolConditions: human, plasma, po, 120 mg, single oral 120 mg, Day 1, three subjects, geometric mean; read-out: Cmax
testReadout: Cmax

Problem: Using the record for COc1ccc2c(c1)CN(Cc1ccc(C(=O)O)cc1)CCS2.O=C(O)/C=C/C(=O)O , state its measured Cmax.
Solution: ~13100 ng/mL
